Taken from paper PMC6152064.

target: hGal8^NTD (N-terminal domain of human galectin-8) (Homo sapiens, UniProt O00214); construct: hexahistidine tag (N); made in house; host or cells: Escherichia coli BL21 (DE3); assay: NMR titration, global fit of chemical shift perturbations (CSP); format: binding; conditions: 298 K, global fit of CSPs > 2σ
Sequence (O00214 1-155 limits assumed): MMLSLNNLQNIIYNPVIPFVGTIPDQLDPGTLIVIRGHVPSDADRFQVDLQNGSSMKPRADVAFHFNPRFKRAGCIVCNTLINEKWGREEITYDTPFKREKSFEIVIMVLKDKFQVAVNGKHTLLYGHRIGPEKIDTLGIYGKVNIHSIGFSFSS
parameter: Kd (µM)
Record the value in µM, omitting the unit from your answer.

Query block: Name the recorded Kd for OC[C@H]1O[C@@H](O[C@H]2[C@H](O)[C@@H](O)C(O)O[C@@H]2CO)[C@H](O)[C@@H](O)[C@H]1O (mixture of isomers) .
Result block: 84

###

molecular target: UniProt P47929; assay: NMR titration, global fit of chemical shift perturbations (CSP); type: binding; design: The constructs encoding the open reading frames of hGal1, hGal7 and hGal8 with a hexahistidine tag at the N-termini; hexahistidine tag (N); made in house; host or cells: Escherichia coli BL21 (DE3); conditions: 298 K, global fit of CSPs > 2σ
Sequence (P47929 whole entry): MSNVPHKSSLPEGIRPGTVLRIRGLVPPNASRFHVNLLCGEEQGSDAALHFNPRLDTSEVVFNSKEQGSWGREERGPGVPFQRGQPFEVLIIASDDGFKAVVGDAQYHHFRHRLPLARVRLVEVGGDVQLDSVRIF
parameter: Kd (µM)
Record the value in µM, omitting the unit from your answer.

Query block: Name the recorded Kd for OC[C@H]1O[C@@H](O[C@H]2[C@H](O)[C@@H](O)C(O)O[C@@H]2CO)[C@H](O)[C@@H](O)[C@H]1O (mixture of isomers) .
Result block: 397

###

molecular target: hGal8^NTD (Homo sapiens); assay: Isothermal titration calorimetry (ITC)
parameter: pKd
Note on units: pKd is unitless, being -log10 of a concentration expressed in mol/L.

Query block: GET /values?readout=pKd&system=hGal8^NTD (Homo sapiens)&item= OC[C@H]1O[C@@H](O[C@H]2[C@H](O)[C@@H](O)C(O)O[C@@H]2CO)[C@H](O)[C@@H](O)[C@H]1O (mixture of isomers) [Lactose, lactose]
Result block: 4.03
